# Tested on: HCC827-YVMA cells (human ERBB2 exon20 insertion mutant A775_G776ins YVMA)
# ASSAY TEXT: Cell growth inhibition (CellTiter-Glo, 3 days) in HCC827-YVMA
# Assay type: cell-based
# CONDITION NOTES: 72 h, 3 days after administration
RECORDED ENDPOINT: GI50

Would you please look over these solved cases?
C=CC(=O)N1CCC(Nc2cc3c(Nc4ccc(Oc5ccn(-c6cnc(C)c(F)c6)n5)cc4F)ncnc3cc2OCC)CC1 [Compound 13]; < 30 nM
C=CC(=O)N1CCC(Nc2cc3c(Nc4ccc(Oc5ccnc(N6CCNC(C)(C)C6)c5)cc4F)ncnc3cc2OC)CC1 [Example 226]; ≥ 1000 nM
C=CC(=O)N1CCC(Nc2cc3c(Nc4ccc(Oc5ccnc(N6C[C@H](OC)[C@@H](OC)C6)c5)cc4F)ncnc3cc2OC)CC1 [Example 256]; < 30 nM
C=CC(=O)N1CCC(Nc2cc3c(Nc4ccc(Oc5ccnc(N6CCN[C@@H](C)C6)c5)cc4F)ncnc3cc2OC)CC1 [Example 225]; 300 to 600 nM
C=CC(=O)N1CCC(Nc2cc3c(Nc4ccc(Oc5ncc(-c6cnc(C)c(F)c6)s5)cc4F)ncnc3cc2OC)CC1 [Example 88]; 30 to 60 nM

Q: Please give the documented GI50 of C=CC(=O)N1CCC(Nc2cc3c(Nc4ccc(Oc5ccn(-c6cc(F)c(C)cn6)n5)cc4F)ncnc3cc2OC)CC1 [Compound 15]
Ans: 60 to 100 nM

Q: Please give the documented GI50 of C=CC(=O)N1CCC(Nc2cc3c(Nc4ccc(Oc5ccnc(N6CCC(O)CC6)c5)c(Cl)c4)ncnc3cc2OC)CC1 [Example 229]
Ans: 100 to 300 nM

* * *

Property: GI50; scope: individual compounds
# Test system: HCC827-YVMA cells (human ERBB2 exon20 insertion mutant A775_G776ins YVMA)
# ASSAY TEXT: Cell growth inhibition (CellTiter-Glo, 3 days) in HCC827-YVMA
# Type: cell-based
# CONDITION NOTES: 72 h, 3 days after administration

Would you please look over these solved cases?
C=CC(=O)N1CCC(Nc2cc3c(Nc4ccc(Oc5ccnc(N6CCN(C)CC6)c5)cc4)ncnc3cc2OC)CC1; 0.1 to 0.3 µM
C=CC(=O)N1CCC(Nc2cc3c(Nc4ccc(Oc5ccnc(-c6cscn6)c5)cc4F)ncnc3cc2OC)CC1; < 0.03 µM
C=CC(=O)N1CCC(Nc2cc3c(Nc4ccc(Oc5ccnc(N6C[C@@H](C)O[C@@H](C)C6)c5)cc4F)ncnc3cc2OC)CC1; < 0.03 µM

Now look at this entry.
Q: Please give the documented GI50 of `C=CC(=O)N1CCC(Nc2cc3c(Nc4ccc(Oc5nc(-c6nnc(C(C)C)o6)cs5)cc4F)ncnc3cc2OC)CC1`
Ans: 0.1 to 0.3 µM

* * *

Property: GI50; scope: individual compounds
# System: HCC827-YVMA cells (human ERBB2 exon20 insertion mutant A775_G776ins YVMA)
# ASSAY TEXT: Cell growth inhibition (CellTiter-Glo, 3 days) in HCC827-YVMA
# Assay type: cell-based
# CONDITION NOTES: 72 h, 3 days after administration

Would you please look over these solved cases?
C=CC(=O)N1CCC(Nc2cc3c(Nc4ccc(Oc5ccn(-c6ccc(C)cn6)n5)c(Cl)c4)ncnc3cc2OC)CC1 [Compound 16]; < 30 nM
C=CC(=O)N1CCC(Nc2cc3c(Nc4ccc(Oc5ccn(-c6ccc(C)nn6)n5)cc4F)ncnc3cc2OC)CC1 [Example 29]; < 30 nM
C=CC(=O)N1CCC(Nc2cc3c(Nc4ccc(Oc5ccn(-c6ccc(OC)nc6)n5)cc4F)ncnc3cc2OC)CC1 [Compound 12]; < 30 nM

Q: Please give the documented GI50 of C=CC(=O)N1CCC(Nc2cc3c(Nc4ccc(Oc5ccnc(-c6ccn[nH]6)c5)cc4F)ncnc3cc2OC)CC1 [Example 45]
Ans: 60 to 100 nM

* * *

Property: GI50; scope: individual molecules
# Test system: HCC827-YVMA cells (human ERBB2 exon20 insertion mutant A775_G776ins YVMA)
# ASSAY TEXT: Cell growth inhibition (CellTiter-Glo, 3 days) in HCC827-YVMA
# Format: cell-based
# CONDITION NOTES: 72 h, 3 days after administration

C=CC(=O)N1CCC(Oc2cc3c(Nc4ccc(Oc5cc(N6C[C@@H](C)O[C@@H](C)C6)ncc5Cl)cc4F)ncnc3cc2OC)CC1 [Example 166]; 300 to 600 nM

Q: Please give the documented GI50 of C=CC(=O)N1CCC(Nc2cc3c(Nc4ccc(Oc5ccnc(N[C@@H]6CCOC6)c5)cc4F)ncnc3cc2OC)CC1 [Example 248]
Ans: 30 to 60 nM

Q: Please give the documented GI50 of C=CC(=O)N1CCC(Nc2cc3c(Nc4ccc(Oc5ccnc(N6CC(C(F)(F)F)C6)c5)cc4F)ncnc3cc2OC)CC1 [Example 161]
Ans: < 30 nM

Q: Please give the documented GI50 of C=CC(=O)N1CCC(Nc2cc3c(Nc4ccc(Oc5ccnc(N6CC(S(C)(=O)=O)C6)c5)cc4F)ncnc3cc2OC)CC1 [Example 143]
Ans: 300 to 600 nM

* * *

Property: GI50; scope: individual compounds
# Test system: A431 cells

Would you please look over these solved cases?
C=CC(=O)N1CCC(Nc2cc3c(Nc4ccc(Oc5ccn(-c6cc(F)c(C)cn6)n5)c(Cl)c4)ncnc3cc2OC)CC1 [Example 17]; 100 to 300 nM
C=CC(=O)N1CCC(Nc2cc3c(Nc4ccc(Oc5ccnc(N6CCC[C@H]6C)c5)cc4F)ncnc3cc2OC)CC1 [Example 249]; 600 to 1000 nM
C=CC(=O)N1CCC(Nc2cc3c(Nc4ccc(Oc5ccn(-c6cnc(C)c(F)c6)n5)cc4F)ncnc3cc2OCC)CC1 [Compound 13]; 300 to 600 nM
C=CC(=O)N1CCC(Nc2cc3c(Nc4ccc(Oc5ccnc(-n6cc(C)cn6)c5)cc4F)ncnc3cc2OC)CC1 [Compound 232]; ≥ 1000 nM
C=CC(=O)N1CCC(Nc2cc3c(Nc4ccc(Oc5ccnc(N6CCN[C@@H](C)C6)c5)cc4F)ncnc3cc2OC)CC1 [Example 225]; ≥ 1000 nM

Now look at this entry.
Q: Please give the documented GI50 of C=CC(=O)N1CCC(Nc2cc3c(Nc4ccc(Oc5ccnc(CN6CCOCC6)c5)cc4F)ncnc3cc2OC)CC1 [Compound 210]
Ans: 600 to 1000 nM

* * *

# Test system: A431 cells
RECORDED ENDPOINT: GI50

C=CC(=O)N1CCC(Nc2cc3c(Nc4ccc(Oc5ccn(-c6nc(OC)nc(OC)n6)n5)cc4F)ncnc3cc2OC)CC1; < 30 nM
C=CC(=O)N1CCC(Nc2cc3c(Nc4ccc(Oc5ccnc(NC6CCCC6)c5)cc4F)ncnc3cc2OC)CC1; 100 to 300 nM

Q: Report GI50 under test system A431 cells for `C=CC(=O)N1CCC(Nc2cc3c(Nc4ccc(Oc5ccnc(C(=O)O)c5)cc4F)ncnc3cc2OC)CC1` .
Ans: ≥ 1000 nM

Q: Report GI50 under test system A431 cells for `C=CC(=O)N1CCC(Nc2cc3c(Nc4ccc(Oc5ccnc(N6CCN(C(C)=O)CC6)c5)cc4F)ncnc3cc2OC)CC1` .
Ans: ≥ 1000 nM

* * *

# System: A431 cells
Property: GI50; scope: individual compounds

Would you please look over these solved cases?
C=CC(=O)N1CCC(Nc2cc3c(Nc4ccc(Oc5ccnc(N6C[C@@H]7OCCO[C@@H]7C6)n5)cc4F)ncnc3cc2OC)CC1; 600 to 1000 nM
C=CC(=O)N1CCC(Nc2cc3c(Nc4ccc(Oc5ccnc(-c6ccc(C)nc6)c5)cc4F)ncnc3cc2OC)CC1; ≥ 1000 nM

Q: Please give the documented GI50 of `C=CC(=O)N1CCC(Nc2cc3c(Nc4ccc(Oc5ccnc(N6CCC(F)(F)C6)c5)cc4F)ncnc3cc2OC)CC1`
Ans: 300 to 600 nM

* * *

# System: A431 cells
RECORDED ENDPOINT: GI50

Would you please look over these solved cases?
C=CC(=O)N1CCC(Nc2cc3c(Nc4ccc(Oc5ccnc(N6CCOC[C@H]6C)c5)cc4F)ncnc3cc2OC)CC1; ≥ 1000 nM
C=CC(=O)N1CCC(Nc2cc3c(Nc4ccc(Oc5ccn(-c6ccc(C)nc6F)n5)cc4F)ncnc3cc2OC)CC1; 600 to 1000 nM

Q: Report GI50 under test system A431 cells for `C=CC(=O)N1CCC(Oc2cc3c(Nc4ccc(Oc5ccnc(N6C[C@H](OC)[C@H](OC)C6)c5)cc4F)ncnc3cc2OC)CC1` .
Ans: ≥ 1000 nM

Q: Report GI50 under test system A431 cells for `C=CC(=O)N1CCC(Nc2cc3c(Nc4cc(Cl)c(Oc5ccn(-c6cnc(C)c(F)c6)n5)cc4F)ncnc3cc2OC)CC1` .
Ans: 100 to 300 nM

Q: Report GI50 under test system A431 cells for C=CC(=O)N1CCC(Nc2cc3c(Nc4ccc(Oc5ccnc(N6CCC(C(F)(F)F)C6)c5)cc4F)ncnc3cc2OC)CC1 (centres unmarked) .
Ans: 100 to 300 nM

Q: Report GI50 under test system A431 cells for `C=CC(=O)N1CCC(Nc2cc3c(Nc4ccc(Oc5ccnc(NC(C)(C)C)c5)cc4F)ncnc3cc2OC)CC1` .
Ans: 300 to 600 nM

Q: Report GI50 under test system A431 cells for `C=CC(=O)N1CCC(Nc2cc3c(Nc4ccc(Oc5ccnc(N6CC(OC(C)C)C6)c5)cc4F)ncnc3cc2OC)CC1` .
Ans: 300 to 600 nM

Q: Report GI50 under test system A431 cells for `C=CC(=O)N1CCC(Nc2cc3c(Nc4ccc(Oc5ccn(-c6ccc(C)cn6)n5)c(Cl)c4)ncnc3cc2OC)CC1` .
Ans: 300 to 600 nM

Q: Report GI50 under test system A431 cells for `C=CC(=O)N1CCC(Nc2cc3c(Nc4ccc(Oc5ccnc(N6CCOCC6)c5)cc4F)ncnc3cc2OC)CC1` .
Ans: ≥ 1000 nM

Q: Report GI50 under test system A431 cells for `C=CC(=O)N1CCC(Nc2cc3c(Nc4ccc(Oc5ncc(-c6cnc(C)c(F)c6)s5)cc4F)ncnc3cc2OC)CC1` .
Ans: ≥ 1000 nM

Q: Report GI50 under test system A431 cells for `C=CC(=O)N1CCC(Nc2cc3c(Nc4ccc(Oc5ccnc(N6CCO[C@H](CO)C6)c5)cc4F)ncnc3cc2OC)CC1` .
Ans: ≥ 1000 nM
